System: PC-3 prostate
test description: NCI tumour cell line growth inhibition, 48 h
Quick reference for TGI among some molecules
// note: answer is a bare numeric in µM

Q: Look up TGI for this molecule: O=C1/C(=C/c2ccncc2)C(n2cccc2)c2c(Br)sc(Br)c21 (stereo not drawn)
Result: 16.1

Q: Please give the measured TGI for this molecule: COc1ccc2c(c1)-c1c(c3cc(OC)ccc3n1CCN(C)C)CC2
Result: 25.9

Q: Quick check: TGI of CCc1nc(N)nc(N)c1-c1ccc([N+](=O)[O-])c(NCc2ccccc2)c1 ?
Result: 39.9

Q: Could you tell me which TGI is on file for CCN1CCN(Cc2ccc(NC(=O)Nc3ccc(-n4ccc5c(NC(=O)c6ccccc6)nccc54)cc3)cc2C(F)(F)F)CC1 ?
Result: 4.68

Q: Give the measured TGI of O=CN1CCN(C(=O)c2ccco2)C1=S .
Result: 23

Continuing:
Q: Give its TGI value. Item: CC(C)c1ccc2nc3ccc(C(=O)NCCN(C)C)cn3c(=O)c2c1
Result: 30.6

Q: Which TGI is listed for CCN(c1ccc(CO)c(Cl)c1)C(C)c1ccc(F)cc1 (stereo not drawn) ?
Result: 26.7
